B1: TPR t1 (parent)
chain: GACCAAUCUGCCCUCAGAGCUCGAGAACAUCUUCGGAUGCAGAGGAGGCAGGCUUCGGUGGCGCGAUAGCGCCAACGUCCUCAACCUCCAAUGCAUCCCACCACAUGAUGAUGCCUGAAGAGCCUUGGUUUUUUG

variants of: B1; assay: polymerase ribozyme fitness, log enrichment relative to wild type (log ratio); higher = more active; in vitro selection for triplet polymerase activity
Listing of recorded polymerase ribozyme fitness (log ratio) by entry.
reported endpoint: polymerase ribozyme fitness (log ratio)

>  <mutation descriptor>
C20G G93A

>  <readout value>
-5.03

$$$$
>  <mutation descriptor>
G61C U106C G135U

>  <readout value>
-3.18

$$$$
>  <mutation descriptor>
C4A C62A U92A U129A

>  <readout value>
-5.8

$$$$
>  <mutation descriptor>
G69A A121U

>  <readout value>
-0.353

$$$$
>  <mutation descriptor>
U7A C8A A37G U59G C62U C88U G113C

>  <readout value>
-3.69

$$$$
>  <mutation descriptor>
C62G C73U A83G

>  <readout value>
-4.25

$$$$
>  <mutation descriptor>
U30C U78A U96A

>  <readout value>
-5.15

$$$$
>  <mutation descriptor>
C34G U67C A103G G107C U116C C123G

>  <readout value>
-7.28

$$$$
>  <mutation descriptor>
A83C G120A

>  <readout value>
0.209

$$$$
>  <mutation descriptor>
C12U C123A

>  <readout value>
2.11

$$$$
>  <mutation descriptor>
C12A A37U A105G G122A

>  <readout value>
-3.74

$$$$
>  <mutation descriptor>
A27C U78G U125A

>  <readout value>
-4.05

$$$$
>  <mutation descriptor>
C13U U14G C80U C115A

>  <readout value>
-3.73

$$$$
